tested on: TO-3-N3-2 (biotin conjugate); experiment: pull-down binding Z-score (relative to library population); higher = stronger binding; conditions: RNA library: Library-2
Label scheme for pull-down binding Z-score: lower than -0.4 is False, -0.4 and above is True.

Solved entries (count: 5):
INSERT INTO assay_data (input_sequence, target_of_assay, qualitative_label) VALUES
  ('UAAAGUACUUAAUGAGAAGUGCUCUGCCUAUACAGUUGAACUCGGUACAGAAGUAAAUGAGUUCGCCUGUGUUGUGGCAGAUGCUGUCAUAAAAACUUUG [DMSMaPseq_invitro_SARS-CoV-2_Motif_52]', 'TO-3-N3-2 (biotin conjugate)', 'True'),
  ('CAUUAACGUGGACCAGACAAUAUUAAUG [hsa-mir-4491]', 'TO-3-N3-2 (biotin conjugate)', 'True'),
  ('AGGCUGGUCUCAAACUCCU [hsa-mir-5096]', 'TO-3-N3-2 (biotin conjugate)', 'True'),
  ('UCCCAGUUUUGGGG [IAV_invivo_PB1_2_Motif_27+IAV_invivo_PB1_2_Motif_27]', 'TO-3-N3-2 (biotin conjugate)', 'False'),
  ('UGCACCACUCUCCCUGUGAUGAGGUGAA [hsa-mir-4786]', 'TO-3-N3-2 (biotin conjugate)', 'True');

Quick check: does CAGGUGACUUUGAUACUUACCUG [U1snRNP5ss-18] have pull-down binding Z-score greater than or equal to -0.4?
False

Quick check: does CAGAGGUCCCACAGCAGGGCUGGAAAGCACACCUGUGGGACUUCUG [hsa-mir-3922] have pull-down binding Z-score greater than or equal to -0.4?
True

Quick check: does AUGGUAAGUGCGAUACUUACCUG [U1snRNP5ss-24] have pull-down binding Z-score greater than or equal to -0.4?
True

Quick check: does UGAUGCGUAUUAUGACAUGGUUGGAUAUGGUUGAUACUAGUUUGUCUGGUUUUAAGCUAAAAGACUGUGUUAUGUAUGCAUCA have pull-down binding Z-score greater than or equal to -0.4?
True

Quick check: does GGAAGAGACAGGUACGUUAAUAGUUAAUAGCGUACUUCUUUUUC have pull-down binding Z-score greater than or equal to -0.4?
True

Quick check: does UCAGCUGGUUUUCCAUUUAAUAAAUGGGGUAAGGCUAGA have pull-down binding Z-score greater than or equal to -0.4?
False

Quick check: does UGUGGACAUGUCAAUGACAUAUGGACAACAGUUUGGUCCAACUUAUUUGGAUGGAGCUGAUGUUACUAAAAUAAAACCUCAUAAUUCACA have pull-down binding Z-score greater than or equal to -0.4?
True

Quick check: does UAUGACCAGGCCAUAGUAAACAUCAUA [hsa-mir-4744] have pull-down binding Z-score greater than or equal to -0.4?
True

Source: the supplement of paper PMC11865577
